Molecular target: Brd4 bromodomain 1 (BRD4(1)) (Homo sapiens, UniProt O60885)
Assay: Inhibition of tetra-acetylated histone H4 binding to Brd4 bromodomain 1, measured by FRET (HTRF)
Design: made in house; host or cells: E. coli BL21(DE3)
Conditions: 2 h at room temperature
Observation Type: IC50

>>> test_value("CSc1nc2c(-c3c(C)nn(C)c3C)cc(-c3c(C)noc3C)cc2[nH]1")
"≤ 0.3 µM"
>>> test_value("Cc1nc2cc(-c3c(C)noc3C)cc(-c3c(C)noc3C)c2o1")
"≤ 0.3 µM"
>>> test_value("Cc1ccc(C#N)cc1-c1cc(-c2c(C)noc2C)cc2[nH]c(NC3CCN(C)CC3)nc12")
"≤ 0.3 µM"
>>> test_value("Cc1noc(C)c1-c1cc(-c2cnn(C)c2)c2nc[nH]c2c1")
"≤ 0.3 µM"
>>> test_value("Cc1noc(C)c1-c1cc(-c2cccc(C(N)=O)c2C)c2nc[nH]c2c1")
"≤ 0.3 µM"
>>> test_value("Cc1noc(C)c1-c1cc(-c2ccccc2C(F)(F)F)c2nc[nH]c2c1")
"0.3 to 3 µM"
>>> test_value("Cc1ccc(C#N)cc1-c1cc(-c2c(C)noc2C)cc2[nH]c(N3CCOCC3)nc12")
"≤ 0.3 µM"
>>> test_value("Cc1nc2c(-c3c(C(F)(F)F)nn(C)c3C)cc(-c3c(C)noc3C)cc2[nH]1")
"≤ 0.3 µM"
>>> test_value("Cc1noc(C)c1-c1cc2c(c(-c3c(C)noc3C)c1)OCC(=O)N2")
"≤ 0.3 µM"
>>> test_value("Cc1noc(C)c1-c1cc(-c2c(C)nn(C)c2C)c2nc(NCc3cccnc3)[nH]c2c1")
"≤ 0.3 µM"

Exercise: Consider the molecule shown here: `CCNc1nc2c(-c3cccnc3C)cc(-c3c(C)noc3C)cc2[nH]1` What is its recorded IC50?
Solution: ≤ 0.3 µM

Exercise: `Cc1noc(C)c1-c1cc(-c2c(C)noc2C)c2nc[nH]c2c1` ?
Solution: ≤ 0.3 µM

Exercise: Check `Cc1noc(C)c1-c1cc(-c2c(C)noc2C)c2nc(NC3CCN(C)CC3)[nH]c2c1` too.
Solution: ≤ 0.3 µM

Exercise: Quick one: `Cc1noc(C)c1-c1cc(-c2c(C)nn(C)c2C)c2nc(NC3CCOCC3)[nH]c2c1`
Solution: ≤ 0.3 µM

Exercise: Same question, `Cc1noc(C)c1-c1cc(-c2c(C)noc2C)c2ncnn2c1` this time
Solution: 3 to 30 µM

Exercise: Now give it for `Cc1noc(C)c1-c1cc(-c2c(C)noc2C)c2nccnc2c1` too.
Solution: 0.3 to 3 µM

###

Target: Brd4 bromodomain 1 (BRD4(1)) (Homo sapiens)
Assay: Inhibition of tetra-acetylated histone H4 binding to Brd4 bromodomain 1, measured by FRET (HTRF)
Design: made in house; host or cells: E. coli BL21(DE3)
Conditions: 2 h at room temperature
pIC50: −log10 of the molar value.
Observation Type: pIC50

Example entries begin here.
>>> test_value("Cc1nc2c(-c3cccnc3C)cc(-c3c(C)noc3C)cc2[nH]1 [Example Compound 41]")
"≥ 6.52"
>>> test_value("Cc1nc2c(-c3ccccc3)cc(-c3c(C)noc3C)cc2[nH]1 [Example Compound 88]")
"≥ 6.52"
>>> test_value("Cc1nc2c(-c3cc(C(F)(F)F)ccc3Cl)cc(-c3c(C)noc3C)cc2[nH]1 [Example Compound 162]")
"5.52 to 6.52"
>>> test_value("Cc1nc2c(-c3cccc(C)c3F)cc(-c3c(C)noc3C)cc2[nH]1 [Example Compound 106]")
"≥ 6.52"
>>> test_value("Cc1noc(C)c1-c1cc(-c2c(C)noc2C)c2nc(NC3CCOCC3)[nH]c2c1 [Example Compound 229]")
"≥ 6.52"

Exercise: Give pIC50 (Brd4 bromodomain 1 (BRD4(1)) (Homo sapiens)) of the following compound: Cc1noc(C)c1-c1cc(-c2cccc(C(N)=O)c2C)c2nc(N3CCN(C)CC3)[nH]c2c1 [Example Compound 206]
Solution: ≥ 6.52

Exercise: Here is the next compound: Cc1noc(C)c1-c1cc(-c2cccc(C#N)c2C)c2nc(N3CCOCC3)[nH]c2c1 [Example Compound 203]
Solution: ≥ 6.52

Exercise: Now give it for Cc1noc(C)c1-c1cc(-c2c(C)nn(C)c2C)c2nc(N3CCCC3)[nH]c2c1 [Example Compound 213] too.
Solution: ≥ 6.52

Exercise: Query COc1cccc(Nc2cc(-c3c(C)noc3C)cc3[nH]cnc23)c1 [Example Compound 33] next
Solution: ≥ 6.52

Exercise: Try the compound Cc1noc(C)c1-c1nc(NCc2ccccc2)c2ccccc2n1 [Example Compound 5]
Solution: 4.52 to 5.52

Exercise: Try the compound Cc1nc2c(-c3sc(C)nc3C)cc(-c3c(C)noc3C)cc2[nH]1 [Example Compound 170]
Solution: ≥ 6.52

Exercise: Again, but for Cc1conc1Nc1cc(-c2c(C)noc2C)cc2[nH]cnc12 [Example Compound 44]
Solution: 5.52 to 6.52

Exercise: Next up: Cc1noc(C)c1-c1cc(-c2cccc(C#N)c2C)c2nc(NC3CCN(C)CC3)[nH]c2c1 [Example Compound 216]
Solution: ≥ 6.52

Exercise: Continue with Cc1nc2c(-c3ccc4c(c3)OCO4)cc(-c3c(C)noc3C)cc2[nH]1 [Example Compound 103]
Solution: ≥ 6.52

Exercise: Item: Cc1nc2c(-c3cccc4ccccc34)cc(-c3c(C)noc3C)cc2[nH]1 [Example Compound 138]
Solution: ≥ 6.52

Exercise: What do you have for Cc1ccc(C#N)cc1-c1cc(-c2c(C)noc2C)cc2[nH]c(NC3CCOCC3)nc12 [Example Compound 198] ?
Solution: ≥ 6.52
